# TEST: Permeability in CALU-3 cells
# Type: in vitro ADME
# CONDITION SUMMARY: human; apical-to-basal, CALU-3 monolayers, pH 7.4, 37° C., 10 μM compound
# Papp A→B at 90 min, 10 μM per entry

SMILES RECORD: CCn1c(CNC(=O)c2nc(Br)c(N)nc2N)[n+](CCOCCOCCO)c2ccc(OC)cc21.O=C([O-])C(F)(F)F
READING QUALIFIER: =
Papp A→B at 90 min, 10 μM / ×10⁻⁶ cm/s: 0.23
//
SMILES RECORD: CC[n+]1c(CNC(=O)c2nc(Cl)c(N)nc2N)n(CCCP(=O)(O)O)c2ccc(OC)cc21.O=C([O-])C(F)(F)F
READING QUALIFIER: <
Papp A→B at 90 min, 10 μM / ×10⁻⁶ cm/s: 0.34
//
SMILES RECORD: CCOP(=O)(OCC)c1ccc(CCC[n+]2c(CNC(=O)c3nc(Cl)c(N)nc3N)n(CC)c3cc(OC)ccc32)cc1.O=C([O-])C(F)(F)F
READING QUALIFIER: =
Papp A→B at 90 min, 10 μM / ×10⁻⁶ cm/s: 0.16
//
SMILES RECORD: CC[n+]1c(CNC(=O)c2nc(Cl)c(N)nc2N)n(C2CCN(C(C)=O)CC2)c2ccccc21.O=C[O-]
READING QUALIFIER: =
Papp A→B at 90 min, 10 μM / ×10⁻⁶ cm/s: 1.7
